Measured pEC50 by item
# tested on: Hepatocyte Growth Factor (HGF), human (human, UniProt P14210 32-728)
# Sequence (P14210 32-728): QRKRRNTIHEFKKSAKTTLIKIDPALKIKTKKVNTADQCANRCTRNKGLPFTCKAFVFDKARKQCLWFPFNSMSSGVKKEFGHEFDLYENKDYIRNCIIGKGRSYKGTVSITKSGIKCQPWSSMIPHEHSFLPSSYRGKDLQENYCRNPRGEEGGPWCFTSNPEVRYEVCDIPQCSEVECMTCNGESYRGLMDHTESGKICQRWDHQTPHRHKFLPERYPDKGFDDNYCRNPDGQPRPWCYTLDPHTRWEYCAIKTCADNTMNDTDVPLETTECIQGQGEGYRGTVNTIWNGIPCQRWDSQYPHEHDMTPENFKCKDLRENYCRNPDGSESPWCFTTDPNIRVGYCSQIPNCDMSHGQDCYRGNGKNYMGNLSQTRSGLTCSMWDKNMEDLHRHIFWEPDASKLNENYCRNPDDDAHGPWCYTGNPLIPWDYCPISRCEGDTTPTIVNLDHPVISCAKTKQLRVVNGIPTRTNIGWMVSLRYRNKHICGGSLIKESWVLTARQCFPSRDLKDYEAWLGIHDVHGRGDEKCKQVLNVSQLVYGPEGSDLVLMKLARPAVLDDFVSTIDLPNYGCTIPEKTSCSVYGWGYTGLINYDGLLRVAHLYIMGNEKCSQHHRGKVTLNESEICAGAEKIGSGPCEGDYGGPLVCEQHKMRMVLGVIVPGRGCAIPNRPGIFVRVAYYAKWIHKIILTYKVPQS
# test protocol: ELISA
The quantity pEC50 is defined as the negative base-10 logarithm of the molar concentration.

Sample records with pEC50:
- binder: "HC 4/SLC 4 (antibody) chain 1: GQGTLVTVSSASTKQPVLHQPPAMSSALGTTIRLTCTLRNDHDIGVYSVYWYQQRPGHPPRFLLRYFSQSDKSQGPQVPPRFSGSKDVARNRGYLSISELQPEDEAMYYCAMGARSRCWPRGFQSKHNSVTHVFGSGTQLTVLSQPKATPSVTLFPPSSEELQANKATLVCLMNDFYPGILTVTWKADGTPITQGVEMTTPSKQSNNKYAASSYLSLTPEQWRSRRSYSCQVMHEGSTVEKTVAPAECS chain 2: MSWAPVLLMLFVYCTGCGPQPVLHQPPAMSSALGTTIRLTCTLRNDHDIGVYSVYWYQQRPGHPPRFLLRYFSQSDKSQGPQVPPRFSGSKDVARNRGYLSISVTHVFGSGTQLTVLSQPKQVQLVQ"
  pEC50: 10.24
- binder: "HC 8/SLC 7 (antibody) chain 1: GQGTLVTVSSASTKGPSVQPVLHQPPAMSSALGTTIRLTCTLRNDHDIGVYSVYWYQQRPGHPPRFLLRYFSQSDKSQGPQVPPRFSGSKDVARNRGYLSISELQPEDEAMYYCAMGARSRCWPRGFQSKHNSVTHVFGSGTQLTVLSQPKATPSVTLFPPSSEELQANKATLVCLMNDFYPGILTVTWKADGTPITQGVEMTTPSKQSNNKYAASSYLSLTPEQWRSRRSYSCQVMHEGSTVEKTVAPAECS chain 2: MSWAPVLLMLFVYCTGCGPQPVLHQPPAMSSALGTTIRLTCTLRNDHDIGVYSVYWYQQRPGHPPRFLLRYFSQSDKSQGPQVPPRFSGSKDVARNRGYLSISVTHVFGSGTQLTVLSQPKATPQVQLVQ"
  pEC50: 10.24

With those in mind, consider the next binder.
The reported value for HC 10/SLC 2 (antibody) chain 1: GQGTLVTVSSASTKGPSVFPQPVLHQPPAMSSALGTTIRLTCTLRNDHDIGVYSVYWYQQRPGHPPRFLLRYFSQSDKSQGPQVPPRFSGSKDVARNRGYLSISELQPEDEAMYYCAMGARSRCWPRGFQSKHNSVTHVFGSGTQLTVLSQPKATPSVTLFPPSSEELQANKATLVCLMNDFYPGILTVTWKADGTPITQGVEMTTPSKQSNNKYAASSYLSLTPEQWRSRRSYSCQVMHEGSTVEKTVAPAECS chain 2: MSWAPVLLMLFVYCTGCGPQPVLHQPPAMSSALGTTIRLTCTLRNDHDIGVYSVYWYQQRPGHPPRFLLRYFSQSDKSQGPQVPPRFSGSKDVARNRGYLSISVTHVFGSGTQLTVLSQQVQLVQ in terms of pEC50 is 10.20
